The measured values listed here are drawn from the RNAGym collection of RNA variant scans (doi:10.1126/science.aae0568).

B1: tRNA (parent)
chain: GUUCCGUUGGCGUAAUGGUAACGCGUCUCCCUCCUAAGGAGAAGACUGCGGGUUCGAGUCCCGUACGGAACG

- Variants of: B1
- assay notes: yeast fitness relative to wild type (ratio to wild type); higher = fitter; tRNA-Arg(CCU), competitive growth, 37 C, YPD
Variants at the floor of the assay were thinned out.
Binary call on yeast fitness: rule met from 0.6 upward, rule not met beneath that.

1. GCUCCGUUGGCGUAAUGGUAACGCGUCUCCCUCCUAAGGAGAAGACUGCGGGUUCGUGUCCUGUACGGAACG :: rule not met
2. GUUUCGUUGGCGUAAUGGUAACGCGUCUCCCUCCUAAGGAGAAGACAGCGGGUCCGAGUCACGUACGGAACG :: rule not met
3. GUUCCGUUGGCGUAGUGGUCACGCGUCUGCCUCCUAAGGAGAAGACUGCGGGUUCGAGUCCCGUACAGAACG :: rule not met

Is yeast fitness at least 0.6? Consider `GUUCCGUUGGCGUAAUGGUAACGCGUAACCCUCCUAAGGAGAAGACUGCGGGUUCGAGUCCCGUACGGAACG`
rule met

Is yeast fitness at least 0.6? Consider `GUUCAGUUGGCGUAAUGGUACCGCGUCUCCCUCCUAAGGAGACGACUACGGGUUCGAGUCCCGUAAGGAACG`
rule not met

Is yeast fitness at least 0.6? Consider `GUUCCGUUGGCGUAAUGGUAACGCGCCUCUCUCCUAAGGAGAACACUGCGAGUUCGAGUCUCGUACGGAACG`
rule not met
